# System Under Test: Aminopeptidase N (Plasmodium falciparum (isolate 3D7))
# Protocol Text: malaria alanyl aminopeptidase activity blockers – biochemical, fluorogenic H-Leu-NHMec substrate, 1536-well (AID 1445);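 note: plate controls were DMSO full reaction for no effect and no enzyme background for full effect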
# Particulars: recombinant M1AAP, H-Leu-NHMec fluorogenic kinetic assay; at 30 µM, stronger effect = higher value unless noted
About 910 (0.41%) of roughly 220,000 compounds were called active. Many of the other results were omitted from the sample, so actives are more common in it than they were. Results with a measured potency or affinity are listed apart.
Recorded Metric: inhibition (%)
# output: bare number, implied unit %

Known results for compounds:
Compound	Reported Result
CC(C)Oc1ccc2c3c(c(=O)oc2c1)CCC3	3.02
O=C(NCc1cccs1)C1CCC(CNS(=O)(=O)c2ccc(Br)s2)CC1 (stereo unspecified)	-4.74
O=C(NCc1cccs1)C1CCCN1S(=O)(=O)c1ccccc1F (stereo unspecified)	2.94
CCS(=O)(=O)N1CCC(C(=O)NCc2cccs2)CC1	10.2
O=C(NCc1cccs1)C1CCN(S(=O)(=O)N2CCCC2)CC1	4.08

Now examine the next entry.
Query block: Data request, read-out inhibition, for Cc1ccc(N(C(=O)C2CCC(=O)N2)C2(C(=O)NC3CCCCC3)CCCCC2)cc1 (stereo unspecified)
Result block: 3.72

---

# System Under Test: Aminopeptidase N (Plasmodium falciparum (isolate 3D7)) (UniProt O96935)
# Sequence (O96935 whole entry, looked up): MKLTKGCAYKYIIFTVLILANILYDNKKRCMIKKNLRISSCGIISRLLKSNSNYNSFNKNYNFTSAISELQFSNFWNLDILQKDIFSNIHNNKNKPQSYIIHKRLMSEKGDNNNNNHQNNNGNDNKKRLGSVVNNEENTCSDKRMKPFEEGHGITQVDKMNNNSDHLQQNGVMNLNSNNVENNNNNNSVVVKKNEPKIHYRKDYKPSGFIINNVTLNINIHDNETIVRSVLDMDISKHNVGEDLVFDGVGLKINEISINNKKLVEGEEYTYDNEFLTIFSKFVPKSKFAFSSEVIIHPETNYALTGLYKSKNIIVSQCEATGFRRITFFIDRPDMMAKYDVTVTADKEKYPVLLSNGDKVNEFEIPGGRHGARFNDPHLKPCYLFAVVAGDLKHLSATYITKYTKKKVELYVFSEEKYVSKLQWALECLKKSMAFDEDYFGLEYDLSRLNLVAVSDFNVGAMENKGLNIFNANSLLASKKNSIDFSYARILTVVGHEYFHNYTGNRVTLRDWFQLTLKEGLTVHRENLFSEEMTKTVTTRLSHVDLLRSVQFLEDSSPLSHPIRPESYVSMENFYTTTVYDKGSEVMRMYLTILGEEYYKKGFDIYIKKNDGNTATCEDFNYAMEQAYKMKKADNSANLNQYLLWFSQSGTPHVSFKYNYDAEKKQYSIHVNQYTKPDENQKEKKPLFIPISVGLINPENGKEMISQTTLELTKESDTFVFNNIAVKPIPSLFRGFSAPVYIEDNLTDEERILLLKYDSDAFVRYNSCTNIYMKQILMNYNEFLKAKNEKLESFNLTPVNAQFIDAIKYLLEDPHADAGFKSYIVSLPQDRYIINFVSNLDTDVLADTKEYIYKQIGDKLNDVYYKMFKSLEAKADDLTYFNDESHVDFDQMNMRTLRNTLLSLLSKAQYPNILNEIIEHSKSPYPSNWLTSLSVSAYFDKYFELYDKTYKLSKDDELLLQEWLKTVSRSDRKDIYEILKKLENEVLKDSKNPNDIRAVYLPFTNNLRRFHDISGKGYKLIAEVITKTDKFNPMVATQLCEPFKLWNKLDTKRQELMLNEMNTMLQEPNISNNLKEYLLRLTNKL
# Protocol Text: malaria alanyl aminopeptidase activity blockers – biochemical, fluorogenic H-Leu-NHMec substrate, 1536-well (AID 1445)
# Particulars: recombinant M1AAP, H-Leu-NHMec fluorogenic kinetic assay; at 30 µM, stronger effect = higher value unless noted
About 910 (0.41%) of roughly 220,000 compounds were called active. Shown is part of a subset that was picked to be rich in actives. Results with a measured potency or affinity are listed apart.
Recorded Metric: inhibition (%)
# output: bare number, implied unit %

Known results for molecules:
Molecule	Unit Tag	Reported Result
COCCNC(=O)COc1ncnc2ccc(Br)cc12	%	0.71
CCCS(=O)(=O)N1CCCC(C(=O)NCc2ccc3c(c2)OCO3)C1 (stereo unspecified)	%	4.51
O=C(NCCc1ccccc1)C1CCN(C(=O)c2sccc2-n2cccc2)CC1	%	5.4
O=C(/C=C\c1ccccc1OC(=O)c1ccccc1F)c1cc2ccccc2o1	%	6.93
CCn1c(C(=O)N2CCC(C(=O)NCc3ccc4c(c3)OCO4)CC2)cc2sccc21	%	31.3
CCCc1c(C(=O)NNc2cc(C(F)(F)F)ccc2Cl)cnn1-c1ccccc1	%	-1.62
O=C(Nn1c(C2CC2)nc2ccccc2c1=O)c1ccco1	%	81.6
CCS(=O)(=O)N1CCC(C(=O)NCc2cccc(OC)c2)CC1	%	-2.58

Query block: Data request, read-out inhibition, for `CCS(=O)(=O)N1CCC(C(=O)NCc2ccc3c(c2)OCO3)CC1`
Result block: 21.3

Query block: Next molecule: `COc1cc2nc(C3CCC3)n(NC(=O)c3ccco3)c(=O)c2cc1OC`
Result block: 11.3

Query block: Next molecule: `O=C(Nn1c(-c2ccccc2)nc2ccccc2c1=O)c1ccco1`
Result block: 15.6

---

# System Under Test: Aminopeptidase N (Plasmodium falciparum (isolate 3D7)) (UniProt O96935)
# Protocol Text: malaria alanyl aminopeptidase activity blockers – biochemical, fluorogenic H-Leu-NHMec substrate, 1536-well (AID 1445)
# Particulars: recombinant M1AAP, H-Leu-NHMec fluorogenic kinetic assay; at 30 µM, stronger effect = higher value unless noted
The campaign covered roughly 220,000 compounds. About 910 (0.41%) were called active. What follows is part of a selection rich in actives, with near analogues and random picks from the rest. Measured potencies and affinities stand elsewhere.
Recorded Metric: inhibition (%)
# output: bare number, implied unit %

Known results for compounds:
Compound	inhibition / %
N=C1/C(=C/c2coc3ccccc3c2=O)C(=O)N=C2SC(c3ccco3)=NN12	18.6
CC1=CC2=NC(=O)/C(=C/c3coc4ccc(Cl)cc4c3=O)C(=N)N2O1	7.94
O=C(O)CC(c1ccc(Cl)cc1)n1cccc1 (configuration not stated)	8.45
O=C(NCCCc1ccccc1)c1ccncc1	-1.01
CCN(CC)NC(=S)Nc1ccccc1	-2.71

Query block: Give recorded inhibition with Aminopeptidase N (Plasmodium falciparum (isolate 3D7)) (UniProt O96935) for the following compound: COc1cc(C)nc(N2CCCC(C(=O)Nc3cccc(Cl)c3Cl)C2)n1 (configuration not stated)
Result block: 1.36

Query block: Next compound: `FC(F)(F)c1cc(-c2cccs2)nc2cc(-c3cccs3)nn12`
Result block: 2.78

---

Below, each entry is listed alongside its reported inhibition.
# System Under Test: Aminopeptidase N (Plasmodium falciparum (isolate 3D7)) (UniProt O96935)
# Protocol Text: malaria alanyl aminopeptidase activity blockers – biochemical, fluorogenic H-Leu-NHMec substrate, 1536-well (AID 1445);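 note: plate controls were DMSO full reaction for no effect and no enzyme background for full effect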
# Particulars: recombinant M1AAP, H-Leu-NHMec fluorogenic kinetic assay; at 30 µM, stronger effect = higher value unless noted
The whole screen tested about 220,000 compounds, of which about 910 (0.41%) were called active. This excerpt belongs to a sample that is enriched for actives. Entries with a potency or affinity are not part of this list.
# output: bare number, implied unit %

Known results for compounds:
Molecular String	System Under Test	Unit Tag	inhibition
O=c1[nH]c(SCc2ccccc2Cl)nc2c1CCCC2	Aminopeptidase N (Plasmodium falciparum (isolate 3D7)) (UniProt O96935)	%	-3.65
COc1ccc(OC)c2sc(NC(=O)c3ccc(S(=O)(=O)N(C)C)cc3)nc12	Aminopeptidase N (Plasmodium falciparum (isolate 3D7)) (UniProt O96935)	%	23.5
COc1ccc(N2CCN(C(=O)COc3ncnc4ccccc34)CC2)cc1	Aminopeptidase N (Plasmodium falciparum (isolate 3D7)) (UniProt O96935)	%	0.28

Query block: Data request, read-out inhibition, for `O=C(NNC(=O)c1ccc2ccccc2c1O)c1ccccc1Cl`
Result block: 25.2

Query block: Next compound: `Cc1nc2ccccc2c2oc(C(=O)N3CCN(C4CCCCC4)CC3)cc12`
Result block: 0.64

Query block: Next compound: `O=c1cnnc(N/N=C/c2ccc3c(c2)OCO3)[nH]1`
Result block: 4.09

---

# System Under Test: Aminopeptidase N (Plasmodium falciparum (isolate 3D7)) (UniProt O96935)
# Protocol Text: malaria alanyl aminopeptidase activity blockers – biochemical, fluorogenic H-Leu-NHMec substrate, 1536-well (AID 1445);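 note: plate controls were DMSO full reaction for no effect and no enzyme background for full effect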
# Particulars: recombinant M1AAP, H-Leu-NHMec fluorogenic kinetic assay; at 30 µM, stronger effect = higher value unless noted
Hit rate of the full screen: of about 220,000 compounds, about 910 (0.41%) were called active. The sample holds actives, similar compounds and a random draw of the others, so the mix is not that of the screen. Entries with a potency or affinity are not part of this list.
Recorded Metric: inhibition (%)
# output: bare number, implied unit %

Known results for compounds:
Compound	inhibition [%]
CCn1nnnc1NCc1ccc(N2CCCC2)cc1	5.58
COc1c(O)cc2c(c1O)C(=O)CC(c1ccccc1)O2 (configuration not stated)	4.17
O=C(CSc1nc2ccccc2s1)NCCOc1ccc(Cl)cc1	-0.05
Cc1nc2c(c(=O)c3ccccc3n2C)c(=O)n1C1CCCCCC1	-1.82

Query block: Data request, read-out inhibition, for `O=C1CNC(=O)/C1=C\N1CCN(C(c2ccccc2)c2ccccc2)CC1`
Result block: 10.1

Query block: Next compound: `O=[N+]([O-])c1cc2oc3c(c2c(C=NCc2ccccc2)c1O)CCCC3`
Result block: -0.25

Query block: Next compound: Cc1oc(C)c2c(=O)ccc3c(c12)OC(N)=C(C#N)C3c1ccccc1 (configuration not stated)
Result block: 12.5

Query block: Next compound: O=C(NNC(=S)Nc1ccc(F)cc1)C1[C@H]2CCCC[C@@H]12 (some centres not stated)
Result block: -16.1

Query block: Next compound: `COc1ccccc1C(=O)Nn1c(C2CCC2)nc2ccccc2c1=O`
Result block: 28.5

Query block: Next compound: Cc1oc(C)c2c(=O)ccc3c(c12)OC(N)=C(C#N)C3c1ccc(F)cc1 (configuration not stated)
Result block: 3.21

Query block: Next compound: `CSc1nnc(-c2ccccc2N=Cc2c(C)[nH]n(-c3ccccc3)c2=O)c(=O)[nH]1`
Result block: 11.9

---

Below, each entry is listed alongside its reported inhibition.
# System Under Test: Aminopeptidase N (Plasmodium falciparum (isolate 3D7)) (UniProt O96935)
# Protocol Text: malaria alanyl aminopeptidase activity blockers – biochemical, fluorogenic H-Leu-NHMec substrate, 1536-well (AID 1445);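 note: plate controls were DMSO full reaction for no effect and no enzyme background for full effect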
# Particulars: recombinant M1AAP, H-Leu-NHMec fluorogenic kinetic assay; at 30 µM, stronger effect = higher value unless noted
Hit rate of the full screen: of about 220,000 compounds, about 910 (0.41%) were called active. The list comes from a sample in which actives are over-represented; it also holds close analogues and randomly drawn compounds. Measured potencies and affinities stand elsewhere.
# output: bare number, implied unit %

Known results for compounds:
Compound	inhibition / %
O=c1oc2cc(O)ccc2c2c1CCCC2	10.5
CCOc1cc(C(N)=O)cc(Br)c1OC	-3.95
CC(/C=C/c1ccccc1)=N\NC(=O)c1cc(C)nc2ccccc12	7.74
COc1ccc(NC(=O)Nc2ccc(OCC(=O)N3CCOCC3)cc2)cc1OC	0.44
OCCNCCOc1ccccc1F	7.92

Query block: Data request, read-out inhibition, for `CCn1c2ccccc2c2nnc(SCC(=O)Nc3cc(C)on3)nc21`
Result block: 1.82

Query block: Next compound: `O=C(NCc1ccccc1F)C1CCN(C(=O)c2sccc2-n2cccc2)CC1`
Result block: 3.14

Query block: Next compound: `COc1ccc(/C(N)=N/OC(=O)c2ccc3c(c2)OCO3)cc1OC`
Result block: 1.74

Query block: Next compound: `CC(=O)Nn1cnc2c(c1=O)C1(CCCCC1)Cc1ccccc1-2`
Result block: 4.35

Query block: Next compound: `Cn1c(CNc2nc3ccccc3n2C)nc2ccccc21`
Result block: -11.6

Query block: Next compound: `CSc1nnc2c3cc(C)ccc3n(Cc3ccccc3)c2n1`
Result block: 1.58
